Target: Lysosomal alpha-glucosidase (Homo sapiens)
Assay: qHTS Assay for Inhibitors and Activators of Human alpha-Glucosidase Cleavage of Glycogen;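 note: the screen sought inhibitors and activators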
Conditions: recombinant GAA, glycogen substrate, Amplex Red glucose oxidase fluorescence; series mostly up to 76.3 µM
Screen size: about 300,000 compounds; about 1,200 (0.4%) were called active. Roughly 3% stayed inconclusive and do not appear here. Calls come from the whole dose curve; as a rule, active = well fitted inhibition curve with a large enough effect; inconclusive = small, poorly fitted or top-dose-only effect, or another doubt; inactive = no such curve, though single readings can be large or run the other way. The sample as a whole holds a higher share of actives than the screen did.
Labels: active, inactive

>>> cat("Cc1ccc(Nc2ccccc2N)cc1")
"active"
>>> cat("CC(C)C1N=C2c3ccccc3N=C(SCC(=O)c3ccc(O)c(O)c3)N2C1=O (configuration not stated)")
"active"
>>> cat("CC(=O)N1CCN(c2ccc(NCc3ccc(C(C)C)cc3)cc2)CC1")
"active"
>>> cat("CCN1C(=O)c2cccc3c(S(=O)(=O)Nc4ccccc4O)ccc1c23")
"inactive"
>>> cat("Nc1ccc(Nc2ccccc2)cc1")
"inactive"
>>> cat("COC(=O)c1cc(S(=O)(=O)N2CCN(c3cc(Cl)ccc3C)CC2)c[nH]1")
"inactive"
>>> cat("CCc1cccc(NC(=O)CN(C)S(=O)(=O)c2ccc3[nH]c4c(c3c2)CCCC4)c1")
"inactive"
>>> cat("Cc1cccc(NC(=O)N2CCC(CN3CCc4ccccc4C3)CC2)c1C")
"inactive"
>>> cat("Cc1ccc(-c2cc(N)n(Cc3cccc(Cl)c3)n2)cc1")
"inactive"
>>> cat("O=C(COC(=O)c1ccccc1C(=O)N1CCN(c2ccccc2)CC1)NCc1ccccc1")
"inactive"
>>> cat("Oc1ccc(N2CCN(C(=S)NCc3ccccc3)CC2)cc1")
"active"
>>> cat("Cc1cc(Nc2ccccc2)n(C(=O)c2ccc(N)cc2)n1")
"inactive"
>>> cat("CCOc1ccc(N(Cc2ccccc2)C(=O)c2nc(S(C)(=O)=O)ncc2Cl)cc1")
"inactive"
>>> cat("CC(Nc1ccc(-c2nc(-c3ccco3)no2)cc1[N+](=O)[O-])c1ccccc1 (configuration not stated)")
"inactive"
>>> cat("Cc1ccc(Nc2nnc(SCc3ccccc3)s2)cc1")
"inactive"
>>> cat("COc1ccccc1CNC(=O)c1ccc(NC(=O)N2CC(C)Sc3ccccc32)cc1 (configuration not stated)")
"inactive"
>>> cat("COc1ccc(NC(=O)N2CCC(Cc3ccccc3)CC2)cc1")
"inactive"
>>> cat("Cc1cccc(OCC(=O)N(Cc2ccc(C(C)C)cc2)Cc2ccco2)c1C")
"inactive"
>>> cat("CC(=O)Oc1cccc(N2C(=O)C3CC=C(Cl)CC3C2=O)c1 (configuration not stated)")
"inactive"
>>> cat("CCOc1ccccc1C(=O)NC1(C(F)(F)F)NC(=O)N(CCc2ccc(OC)c(OC)c2)C1=O (configuration not stated)")
"inactive"
>>> cat("CCCS(=O)(=O)c1c(Nc2ccccc2C)sc(C(=O)c2ccccc2)c1N")
"inactive"
>>> cat("O=C(CSC1=Nc2ccccc2C2=NC(CC(=O)NCc3ccco3)C(=O)N12)NCc1ccco1 (configuration not stated)")
"inactive"

* * *

Molecular target: Lysosomal alpha-glucosidase (Homo sapiens) (UniProt P10253)
Experiment: qHTS Assay for Inhibitors and Activators of Human alpha-Glucosidase Cleavage of Glycogen; note: potency is the fitted concentration of half-maximal effect;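 note: the screen sought inhibitors and activators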
Settings: recombinant GAA, glycogen substrate, Amplex Red glucose oxidase fluorescence; series mostly up to 76.3 µM
Among all 300,000 compounds or so, about 1,200 (0.4%) were called active. Not shown: some 3% with an inconclusive outcome. The list comes from a sample in which actives are over-represented; it also holds close analogues and randomly drawn compounds.
READOUT_TYPE: Potency

>>> observed_result("COc1ccc2c(c1)C(C)=CC(C)(C)N2C(=O)CNCc1ccc2c(c1)OCO2")
"inactive"
>>> observed_result("CCCOc1ccc(N/C=C/C(=O)C(C)(C)C)cc1")
"31.6 µM (active)"
>>> observed_result("CC(C)Cn1c(=O)c2ccccc2n2c(CCC(=O)N3CCN(c4cccc(Cl)c4)CC3)nnc12")
"inactive"
>>> observed_result("CCS(=O)(=O)N1CCc2cc(C(=O)NCc3ccc(OC)cc3)ccc21")
"inactive"
>>> observed_result("CCOc1ccc2nc(N3CCCC(C(=O)Nc4cc(C)ccc4C)C3)sc2c1 (stereo not given)")
"inactive"
>>> observed_result("CCN(CC)S(=O)(=O)c1ccc(N2CCOCC2)c(C(=O)O)c1")
"inactive"
>>> observed_result("COc1ccc2c(c1)C(C)=CC(C)(C)N2C(=O)Nc1ccccc1")
"35.5 µM (active)"
>>> observed_result("O=C(CSCc1cnn(-c2ccccc2)c1-n1cccc1)NCc1ccccc1Br")
"inactive"
>>> observed_result("CC1=CC(C)(C)N(C(=O)CSc2nnc(-c3ccccc3)o2)c2ccc(C)cc21")
"inactive"
>>> observed_result("CCC1CCCCN1S(=O)(=O)c1ccc(NC(=O)c2cc(=O)c3ccccc3o2)cc1 (stereo not given)")
"inactive"
